system-under-test: recombinant soluble homotrimeric HA of A/chicken/Vietnam/NCVD-016/08 (H5N1) (Influenza A virus A/chicken/Vietnam/NCVD-016/2008(H5N1))
measurement-notes: trimeric HA microarray, transfection supernatant set 2
settings: remark: other sources report otherwise
reported-endpoint: Trimeric HA Binding: RLU (RLU)

[[record]]
binder = "TCN-504 (3251_K17) (antibody, V domains shown) VH: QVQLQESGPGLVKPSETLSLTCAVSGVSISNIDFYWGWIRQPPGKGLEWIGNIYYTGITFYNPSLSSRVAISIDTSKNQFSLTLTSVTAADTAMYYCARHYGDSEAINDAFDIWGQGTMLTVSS VL: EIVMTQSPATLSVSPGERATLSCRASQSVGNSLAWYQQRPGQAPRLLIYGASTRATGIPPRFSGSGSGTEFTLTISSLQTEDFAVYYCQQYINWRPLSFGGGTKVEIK"
numeric_value = 27300

